- Tested on: CD4^+ T cells from HIV^+ subjects
- settings: HIV-1 epitope peptide; HIV+ human subjects; threshold ≥0.2%
Residues, ends and D or L forms follow the SMILES beside them.
quantity: CyCD4: CD4+ T-cell cytolysin/cytotoxins (perforin, GrzA & B), frequency of responders

compound	result
CC[C@H](C)[C@H](NC(=O)[C@H](CCCCN)NC(=O)[C@@H](NC(=O)[C@@H](NC(=O)[C@H](CCCCN)NC(=O)[C@H](Cc1ccc(O)cc1)NC(=O)[C@H](CCCCN)NC(=O)[C@H](Cc1ccc(O)cc1)NC(=O)[C@H](CC(C)C)NC(=O)[C@H](CCC(=O)O)NC(=O)[C@H](CO)NC(=O)[C@H](CCCNC(=N)N)NC(=O)[C@H](Cc1c[nH]c2ccccc12)NC(=O)[C@H](CC(N)=O)NC(=O)[C@@H](N)CC(=O)O)C(C)C)C(C)C)C(=O)O [HSU4] (H-DNWRSELYKYKVVKI-OH; N-terminus and C-terminus assumed)	− (0%-1.4% (−))
CC[C@H](C)[C@H](NC(=O)[C@H](CC(=O)O)NC(=O)[C@@H](NC(=O)[C@H](C)NC(=O)[C@@H](NC(=O)[C@@H](NC(=O)[C@H](CC(=O)O)NC(=O)[C@@H](NC(=O)[C@@H](NC(=O)[C@H](CCCNC(=N)N)NC(=O)[C@H](CCC(=O)O)NC(=O)CN)[C@@H](C)CC)C(C)C)[C@@H](C)CC)[C@@H](C)CC)[C@@H](C)O)C(=O)N[C@@H](CCC(N)=O)C(=O)N[C@H](C(=O)N[C@@H](CCCCN)C(=O)O)[C@@H](C)O [HIN7-1] (H-GERIVDIIATDIQTK-OH; N-terminus and C-terminus assumed)	− (0%-1.4% (−))
CC(C)C[C@H](NC(=O)[C@H](C)NC(=O)[C@@H](N)CCC(=O)O)C(=O)N[C@@H](CC(C)C)C(=O)N[C@@H](CC(=O)O)C(=O)N[C@H](C(=O)NCC(=O)N[C@@H](C)C(=O)N[C@@H](CC(=O)O)C(=O)N[C@@H](CC(=O)O)C(=O)N[C@H](C(=O)N[C@H](C(=O)N[C@@H](CC(C)C)C(=O)N[C@@H](CCC(=O)O)C(=O)O)C(C)C)[C@@H](C)O)[C@@H](C)O [HPR2] (H-EALLDTGADDTVLE-OH; N-terminus and C-terminus assumed)	− (0%-1.4% (−))

----------
- System: CD4^+ T cells from HIV^+ subjects
- settings: HIV-1 peptides; HIV+ human subjects
Residues, ends and D or L forms follow the SMILES beside them.
quantity: CyCD4 (cytolysin and cytotoxin production of CD4+ T cells), frequency of responders

compound	result
CSCC[C@H](NC(=O)[C@H](Cc1c[nH]c2ccccc12)NC(=O)[C@H](CC(N)=O)NC(=O)[C@H](CCCCN)NC(=O)[C@@H](NC(=O)[C@H](CCC(=O)O)NC(=O)[C@H](CCC(N)=O)NC(=O)[C@H](CO)NC(=O)[C@H](C)N)C(C)C)C(=O)N[C@H](C(=O)N[C@@H](CCC(=O)O)C(=O)N[C@H](C(=O)N[C@@H](CC(C)C)C(=O)N[C@@H](CC(C)C)C(=O)N[C@H](C(=O)O)C(C)C)[C@@H](C)O)[C@@H](C)O [Hp14-2(15-2)] (H-ASQEVKNWMTETLLV-OH; N-terminus and C-terminus assumed)	++++ (>54% (++++))
CC(C)C[C@H](NC(=O)[C@H](CCC(=O)O)NC(=O)[C@H](CCCNC(=N)N)NC(=O)[C@H](Cc1ccccc1)NC(=O)[C@H](CC(=O)O)NC(=O)[C@@H](NC(=O)[C@H](CC(C)C)NC(=O)[C@H](CCCCN)NC(=O)[C@H](CCCNC(=N)N)NC(=O)[C@@H](N)Cc1c[nH]c2ccccc12)C(C)C)C(=O)N[C@@H](CC(N)=O)C(=O)N[C@@H](CCCCN)C(=O)N[C@@H](CCCNC(=N)N)C(=O)O	++++ (>54% (++++))
CSCC[C@H](NC(=O)[C@H](Cc1c[nH]c2ccccc12)NC(=O)[C@H](CC(N)=O)NC(=O)[C@H](CCCCN)NC(=O)[C@@H](N)C(C)C)C(=O)N[C@H](C(=O)N[C@@H](CCC(=O)O)C(=O)N[C@H](C(=O)N[C@@H](CC(C)C)C(=O)N[C@@H](CC(C)C)C(=O)N[C@H](C(=O)N[C@@H](CCC(N)=O)C(=O)N[C@@H](CC(N)=O)C(=O)N[C@@H](C)C(=O)N[C@@H](CC(N)=O)C(=O)O)C(C)C)[C@@H](C)O)[C@@H](C)O [Hp14-3(15-3)] (H-VKNWMTETLLVQNAN-OH; N-terminus and C-terminus assumed)	++++ (>54% (++++))
